Just for reference, ChEMBL document CHEMBL1129704 is where these values come from.

Collected IC50 values appear next to each entry.
Target: D(1A) dopamine receptor (Homo sapiens, UniProt P21728)
Sequence (P21728 whole entry): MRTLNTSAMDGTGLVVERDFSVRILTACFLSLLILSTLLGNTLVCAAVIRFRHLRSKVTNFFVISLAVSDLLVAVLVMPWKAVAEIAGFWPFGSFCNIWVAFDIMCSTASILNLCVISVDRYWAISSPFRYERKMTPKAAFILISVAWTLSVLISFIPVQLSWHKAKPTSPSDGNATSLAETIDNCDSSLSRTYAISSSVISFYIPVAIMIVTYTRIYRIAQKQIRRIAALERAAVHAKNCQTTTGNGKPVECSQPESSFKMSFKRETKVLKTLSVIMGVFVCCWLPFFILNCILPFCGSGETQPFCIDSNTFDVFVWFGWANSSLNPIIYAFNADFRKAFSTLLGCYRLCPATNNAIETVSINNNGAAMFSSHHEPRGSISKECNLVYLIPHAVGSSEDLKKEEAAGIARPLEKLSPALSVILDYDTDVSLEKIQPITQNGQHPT
Assay: Binding affinity towards Dopamine receptor D1 by displacement of [3H]SCH-23,390

| Compound | Target desc | Unit abbreviation | Measurement qualifier | IC50 |
| --- | --- | --- | --- | --- |
| COc1cccc2c1CC1(CCCN1CCCCN1C(=O)CC3(CCCC3)CC1=O)CO2 (centres undefined) | D(1A) dopamine receptor (Homo sapiens, UniProt P21728) | µM | > | 10 |
| O=C1CC2(CCCC2)CC(=O)N1CCCCNCC1COc2ccccc2C1 (centres undefined) | D(1A) dopamine receptor (Homo sapiens, UniProt P21728) | µM | = | 3.31 |
| CCCN(CCCCN1C(=O)CC2(CCCC2)CC1=O)CC1COc2cccc(OC)c2C1 (centres undefined) | D(1A) dopamine receptor (Homo sapiens, UniProt P21728) | µM | = | 13.8 |
| COc1cccc2c1CC(CNCCCCN1C(=O)CC3(CCCC3)CC1=O)CO2 (centres undefined) | D(1A) dopamine receptor (Homo sapiens, UniProt P21728) | µM | = | 0.832 |

----------
Biological target: 5-hydroxytryptamine receptor 1B (Homo sapiens, UniProt P28222)
Sequence (P28222 whole entry): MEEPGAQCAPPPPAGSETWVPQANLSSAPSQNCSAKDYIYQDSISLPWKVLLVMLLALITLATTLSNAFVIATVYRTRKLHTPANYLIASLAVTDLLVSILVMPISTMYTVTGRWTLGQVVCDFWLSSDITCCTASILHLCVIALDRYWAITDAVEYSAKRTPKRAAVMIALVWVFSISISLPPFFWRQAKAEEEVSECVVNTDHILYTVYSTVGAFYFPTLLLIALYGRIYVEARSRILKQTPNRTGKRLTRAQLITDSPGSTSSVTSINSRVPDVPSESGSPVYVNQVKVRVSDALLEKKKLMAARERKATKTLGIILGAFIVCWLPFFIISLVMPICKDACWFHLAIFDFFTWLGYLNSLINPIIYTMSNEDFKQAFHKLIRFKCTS
Test: Binding affinity towards 5-hydroxytryptamine 1B receptor by displacement of [3H]5-HT.
The threshold is 7 µM. Values of IC50 beneath it are tagged yes; values meeting or exceeding it are tagged no.

| Compound | Assigned category |
| --- | --- |
| COc1cccc2c1CC1(CCCN1CCCCN1C(=O)CC3(CCCC3)CC1=O)CO2 (centres undefined) | yes |
| COc1cccc2c1CC(CNCCCCN1C(=O)CC3(CCCC3)CC1=O)CO2 (centres undefined) | yes |
| CCCN1CCN(CCCCN2C(=O)CC3(CCCC3)CC2=O)CC12COc1cccc(OC)c1C2 (centres undefined) | yes |
| CCCN1CCN(CCC)C2(COc3cccc(OC)c3C2)C1 (centres undefined) | no |
| CCCN1CCN(Cc2ccccc2)CC12COc1cccc(OC)c1C2 (centres undefined) | no |
| CCCN(CCC)CC1COc2cccc(OC)c2C1 (centres undefined) | no |
| CCCN(CCCCN1C(=O)CC2(CCCC2)CC1=O)CC1COc2cccc(OC)c2C1 (centres undefined) | no |
| CCCN(CCC)CC1(N(CCC)CCC)COc2cccc(OC)c2C1 (centres undefined) | no |
